- Procedure summary: OD615 S. cerevisiae growth inhibition, permissive medium, pilot counter-assay, permissive growth control for S. cerevisiae lifespan shortening project (AID 705)
- Experimental conditions: OD615, 24 h, at 10 µM, active compounds read high
Catalogue of growth inhibition values
Provide the reading as a plain figure in %.

# example entries with known answers
CN(C)c1nc(N)nc(N(c2ccccc2)c2ccccc2)n1; -12.3
Cc1cc(C)c(C#N)c(Oc2ccc(O)cc2)n1; -14.7
COc1ccc(C)cc1NC(=O)c1cnc2scc(C)n2c1=O; 9.45
COc1ccc(C(=O)c2cn[nH]c2-c2cc(Cl)ccc2O)cc1; 3.93
O=C(Nc1nccs1)c1ccc(Cl)s1; -0.705
CS(=O)(=O)c1ccc2nc(NC(=O)C3CCCCC3)sc2c1; -0.52
Cc1ccc(C(=O)NCCCCNC(=O)c2ccc(C)o2)o1; -5.8
CC(C)N(C(=O)CN(C#N)c1nc(N(C)C)nc(N(C)C)n1)c1ccccc1; -16.1
COc1cccc(N2CCN(C3CC(=O)N(c4ccc(Cl)cc4)C3=O)CC2)c1 (centres undefined); -8.98
Cn1ccnc1SC(=O)N1c2ccccc2Sc2ccccc21; 0.525

Input: Give reported growth inhibition value for COc1cc(O)c(NC(C)=O)c2nonc12
Output: -5.37

Input: Give recorded growth inhibition. O=C(NCC1CCCO1)NC1(C(F)(F)F)Oc2ccccc2O1 (centres undefined)
Output: -24.1

Input: Query growth inhibition for CCOC(=O)N1CCN(C(=O)c2ccc3c(=O)n(CCC4=CCCCC4)c(=S)[nH]c3c2)CC1
Output: -6.92

Input: Please report the measured growth inhibition for COCCCN(C(=O)Cn1ncc2c(=O)oc3ccc(C)cc3c21)C(C)c1ccncc1 (centres undefined)
Output: -16

Input: Return the recorded growth inhibition value; entry: CCOC(=O)N1CCC(Nc2cc(C)nc3c(-c4ccccc4OC)c(C)nn23)CC1
Output: -2.85

Input: Annotate the compound Cc1ccnc(N2C(=O)c3ccccc3C2Nc2ccccc2Cl)c1 (centres undefined) with its measured growth inhibition.
Output: -15.2

Input: Read the entry COCCNS(=O)(=O)c1ccc(C2CNC(=O)C2)cc1 (centres undefined) and write its reported growth inhibition.
Output: -7.18

Input: Answer with reported growth inhibition of Cc1nc(N2CCN(C)CC2)c2sc(=S)n(-c3ccccc3)c2n1
Output: -1.92

Input: Annotate the compound c1ccc2c(c1)[nH]c1nc3nncn3nc12 with its measured growth inhibition.
Output: -7.18

Input: Determine its reported growth inhibition: COc1ccc(C2CC(c3cccc(C)c3)n3nc(N)nc3N2)cc1 (centres undefined)
Output: 6.39

Input: Please report the measured growth inhibition for CCN1C(=O)c2ccccc2Sc2ccc(C(=O)NCCN3CCOCC3)cc21
Output: -6.92

Input: Using known records, supply growth inhibition for Cn1nc(-c2ccc(Cl)cc2)c2cc(C(=O)NCCCN3CCOCC3)sc21
Output: -3.37

Input: State its growth inhibition: COc1ccccc1-c1c(C)nn2c(C)cc(C)nc12
Output: -5.75

Input: Name the recorded growth inhibition of the item CCOC(=O)CSc1nc2sc(C(=O)O)c(C)c2c(=O)[nH]1 in your answer.
Output: 0.2

---

- Procedure summary: OD615 S. cerevisiae growth inhibition, permissive medium, pilot counter-assay, permissive growth control for S. cerevisiae lifespan shortening project (AID 705)
- Experimental conditions: OD615, 24 h, at 10 µM, active compounds read high
Measured growth inhibition by item
Report the figure in % without appending any unit label.

See these solved cases before continuing.
COC(=O)C1CCCN1C(C(=O)NC1CCCCC1)c1ccc(Cl)cc1 (stereo unspecified); -15.1
CC(=O)NC(CCS(C)(=O)=O)C(=O)Nc1ccc(Cl)c(Cl)c1 (stereo unspecified); -4.26
O=C(NC1CCCCC1)c1ccc(Br)o1; -5.84
COc1ccc(Br)cc1S(=O)(=O)N1CCN=C1C; -0.525
CCC(=O)N1c2ccccc2-c2nnc(SC)nc2OC1c1ccc(N(C)C)cc1 (stereo unspecified); -3.95

Input: Given CCOCCCNC(=O)c1cc2c(-c3ccc(Cl)cc3)nn(C)c2s1 , respond with its growth inhibition.
Output: 7.49

Input: Note growth inhibition for the molecule shown: COc1ccc(CN2CC34C=CC(O3)C(C(=O)O)C4C2=O)cc1 (stereo unspecified)
Output: -1.83

Input: Complete the entry with growth inhibition for CC1(C)CC(n2c(NCCO)nc3c(c2=O)C2(CCCC2)Cc2ccccc2-3)CCO1 (stereo unspecified)
Output: 11.7

Input: Hello, please tell me recorded growth inhibition for this one: OC(COc1cccc2ccccc12)CN1CCN(c2ccccn2)CC1 (stereo unspecified)
Output: -5.36

Input: Supply recorded growth inhibition for C=C(C)CSc1nnc(-c2cccc(Cl)c2)n1N here.
Output: 3.94

Input: Tell me measured growth inhibition for O=C(CN(Cc1ccccc1F)S(=O)(=O)c1ccc(Cl)cc1)NCCCO please.
Output: -12.7
